- TESTED_SYSTEM: Cytochrome P450 2C9 (Homo sapiens) (UniProt P11712)
- Sequence (P11712 whole entry, looked up): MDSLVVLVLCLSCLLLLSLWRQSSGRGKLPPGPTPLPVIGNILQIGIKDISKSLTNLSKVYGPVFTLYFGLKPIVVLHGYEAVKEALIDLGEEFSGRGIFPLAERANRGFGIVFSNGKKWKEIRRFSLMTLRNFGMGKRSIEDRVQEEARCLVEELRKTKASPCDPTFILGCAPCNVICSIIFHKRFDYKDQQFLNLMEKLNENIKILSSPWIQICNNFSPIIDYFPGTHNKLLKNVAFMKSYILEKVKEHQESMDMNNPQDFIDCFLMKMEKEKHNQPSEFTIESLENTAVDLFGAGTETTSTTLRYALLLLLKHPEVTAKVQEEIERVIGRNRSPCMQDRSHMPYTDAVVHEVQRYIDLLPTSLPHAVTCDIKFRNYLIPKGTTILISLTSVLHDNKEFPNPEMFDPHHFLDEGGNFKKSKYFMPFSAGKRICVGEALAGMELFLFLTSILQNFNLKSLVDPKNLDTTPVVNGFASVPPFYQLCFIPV
- TEST_NAME: blockers of cytochrome P450 2C9 activity – biochemical, luminescence, ADME assay, primary screen (AID 777)
- CONDITION_LABEL: CYP2C9 Supersomes, luciferin-H conversion, at 5 µM, active compounds read high
Screen size: about 96,000 compounds; about 19,000 (20%) were called active. The list is a sample of the results.
Think of 20% as a floor: if inhibition stands on it or above, it is Fulfilled; beneath it, Not fulfilled.

Please review the entries below; each comes with its answer.
CNC(=O)CSc1nnnn1-c1ccc(C)cc1C ... Not fulfilled
Cc1nn(CC(=O)Nc2ccc3c(c2)nc(CN2CCCCC2)n3C)c(=O)c2ccccc12 ... Not fulfilled
CCOC(=O)c1c(-c2ccc(C)cc2C)csc1NC(=O)CSc1nnnn1C ... Fulfilled
CCOC(=O)C1=C(CNC2CCCCC2)NC(=O)NC1c1cc(C)ccc1C (configuration not stated) ... Fulfilled
O=C(Nc1nnc(SCc2ccccc2)s1)c1ccco1 ... Not fulfilled
Cc1c(NC(=O)c2coc(=O)c(Br)c2)c(=O)n(-c2ccccc2)n1C ... Not fulfilled
O=C(Nc1ccc(NC(=O)c2cccs2)cn1)c1ccco1 ... Fulfilled
CCCCN1C(=O)CC(N2CCOCC2)C1=O (configuration not stated) ... Not fulfilled
CC1CC(c2ccccc2)n2nc(NC(=O)c3cccs3)nc2N1 (configuration not stated) ... Not fulfilled
CCOC(=O)c1[nH]cnc1C(=O)NC1CCCCC1 ... Fulfilled

Task: Assess whether reported inhibition for "CCOC(=O)CSc1nnc(CNc2ccc(F)cc2)o1" sits at 20% or higher.
Result: Not fulfilled

Task: Assess whether reported inhibition for CCOC(=O)C1=C(CSc2nccn2C)NC(=O)NC1c1ccc(OC)cc1 (configuration not stated) sits at 20% or higher.
Result: Not fulfilled

Cited source for all entries: PubChem BioAssay AID777
